# SYSTEM_UNDER_TEST: T1, Human CD19-his protein (human, UniProt P15391 20-291)
# T1 construct: bought protein; also called recombinant human CD19-His; CD19 full-length protein; not shown: His tag
# T1 sequence (looked up): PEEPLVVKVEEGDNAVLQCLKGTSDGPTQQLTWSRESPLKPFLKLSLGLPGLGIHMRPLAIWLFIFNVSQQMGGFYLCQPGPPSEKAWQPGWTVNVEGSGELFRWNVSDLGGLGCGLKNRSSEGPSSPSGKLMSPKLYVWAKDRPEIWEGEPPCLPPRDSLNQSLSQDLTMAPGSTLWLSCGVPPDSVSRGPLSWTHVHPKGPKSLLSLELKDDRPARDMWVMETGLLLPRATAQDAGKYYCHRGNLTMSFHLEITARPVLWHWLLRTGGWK
# TEST_DETAILS: SPR Biacore, Ab captured on Protein A, CD19-His analyte
OBSERVATION_TYPE: kon (M⁻¹ s⁻¹)

* F4.49.11 (antibody, human IgG1, V domains shown, human-murine chimeric antibody, human IgG1 constant) VH: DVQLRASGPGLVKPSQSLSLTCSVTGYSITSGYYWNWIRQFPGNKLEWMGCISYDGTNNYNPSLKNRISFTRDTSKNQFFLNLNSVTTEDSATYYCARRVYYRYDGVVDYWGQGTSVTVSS VL: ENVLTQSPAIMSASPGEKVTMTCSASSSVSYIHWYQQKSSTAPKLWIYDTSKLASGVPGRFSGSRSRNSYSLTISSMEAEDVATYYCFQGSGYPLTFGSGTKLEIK | 73000
* F3.126.15 (antibody, human IgG1, V domains shown, human-murine chimeric antibody, human IgG1 constant) VH: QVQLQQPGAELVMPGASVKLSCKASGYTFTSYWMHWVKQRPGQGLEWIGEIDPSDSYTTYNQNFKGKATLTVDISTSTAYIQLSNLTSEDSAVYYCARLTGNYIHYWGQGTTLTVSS VL: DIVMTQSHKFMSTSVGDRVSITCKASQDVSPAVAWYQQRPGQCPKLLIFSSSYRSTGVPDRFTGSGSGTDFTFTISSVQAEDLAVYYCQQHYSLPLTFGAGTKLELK | 61300
* F3.121.4 (antibody, human IgG1, V domains shown, human-murine chimeric antibody, human IgG1 constant; also called chimeric antibody F3.121.4) VH: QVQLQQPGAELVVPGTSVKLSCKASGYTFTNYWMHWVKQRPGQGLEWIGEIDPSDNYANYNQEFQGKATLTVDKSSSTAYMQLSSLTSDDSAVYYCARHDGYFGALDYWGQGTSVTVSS VL: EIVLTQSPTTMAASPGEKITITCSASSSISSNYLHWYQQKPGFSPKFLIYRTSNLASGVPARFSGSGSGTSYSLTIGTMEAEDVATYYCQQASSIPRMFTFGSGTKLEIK | 327000
